# Tested on: Human peripheral blood mononuclear cells (PBMCs) as Responder cells, RPMI 1788 Stimulator cells
# test protocol: Mixed Lymphocyte Reaction (MLR) test
# Format: cell-based
# test conditions: Homo sapiens, RPMI-1788, lowest concentration giving 50% inhibition of the MLR; 6 days coculture, 3H-thymidine incorporation
reported property: pIC50
Give bare numbers, as −log10 of the molar value.

CC(c1ccc(F)cc1)c1nc2c(N3CCN(C(=O)COc4ccc(Cl)cc4)CC3)nc(N)nc2s1 (centres unmarked) [Example 66] = 5.36
Nc1nc(N2CCN(C(=O)COc3ccc(OC(F)(F)F)cc3)CC2)c2nc(-c3cccnc3)sc2n1 [Example 273] = 7.35
Nc1nc(N2CCN(C(=O)COc3ccc(Cl)cc3)CC2)c2nc(-c3ccc(C(F)(F)F)cc3)[nH]c2n1 [Example 394] = 6.20

Dear reader, for each entry below, please note its pIC50.
1. Nc1nc(N2CCN(S(=O)(=O)Cc3ccccc3)CC2)c2nc(CCc3ccc(F)cc3)sc2n1 [Example 137]
2. Nc1nc(N2CCN(C(=O)COc3ccc(Cl)cc3)CC2)c2nc(-c3ccccc3)sc2n1 [Example 215]
3. Nc1nc(N2CCN(C(=O)COc3ccc(Cl)cc3)CC2)c2nc(CCOc3ccc(F)cc3)sc2n1 [Example 48]

Marked response:
1: 5.18; 2: 6.94; 3: 5.45

Exam item: Find the recorded pIC50 belonging to Cc1cccc(NC(=O)N2CCN(c3nc(N)nc4oc(CCc5ccc(F)cc5)nc34)CC2)c1 [Example 196] and report it.
Marked response: 5.40

====

# Test system: Human peripheral blood mononuclear cells (PBMCs) as Responder cells, RPMI 1788 Stimulator cells
# test protocol: Mixed Lymphocyte Reaction (MLR) test
# Type: cell-based
# test conditions: Homo sapiens, RPMI-1788, lowest concentration giving 50% inhibition of the MLR; 6 days coculture, 3H-thymidine incorporation
pIC50: −log10 of the molar value.
// label = Criterion met if pIC50 is not less than 6, otherwise Criterion not met

Nc1nc(N2CCOCC2)c2nc(-c3ccc(F)cc3)sc2n1 = Criterion not met
Cc1cccc(NC(=O)N2CCN(c3nc(N)nc4sc(Cc5ccc(F)cc5)nc34)CC2)c1 = Criterion met
Nc1nc(N2CCN(CCOc3ccccc3)CC2)c2nc(CCc3ccc(F)cc3)oc2n1 = Criterion not met
Cc1ccc(-c2nc3c(N4CCN(C(=O)COc5ccc(Cl)cc5)CC4)nc(N)nc3s2)cc1 = Criterion met
Nc1nc(N2CC[C@@H](NC(=O)COc3ccc(Cl)cc3)C2)c2nc(CCc3ccc(F)cc3)sc2n1 = Criterion not met

Exam item: Quick check: does CC(C)(C)c1nc2c(N3CCN(C(=O)COc4ccc(Cl)cc4)CC3)nc(N)nc2[nH]1 have pIC50 greater than or equal to 6?
Marked response: Criterion not met

Exam item: Please indicate if the recorded pIC50 for CSc1nc2c(N3CCN(C(=O)COc4ccc(Cl)cc4)CC3)nc(N)nc2[nH]1 meets or exceeds 6.
Marked response: Criterion met

====

# Tested on: Human peripheral blood mononuclear cells (PBMCs) as Responder cells, RPMI 1788 Stimulator cells
# test protocol: Mixed Lymphocyte Reaction (MLR) test
# Type: cell-based
# test conditions: Homo sapiens, RPMI-1788, lowest concentration giving 50% inhibition of the MLR; 6 days coculture, 3H-thymidine incorporation
pIC50: −log10 of the molar value.
# binarize pIC50: threshold 6 inclusive, high side class 1, low side class 0

Nc1nc(N2CCN(C(=O)C3CCCCC3)CC2)c2cc(-c3ccc(F)cc3)sc2n1 [Example 345] = class 0

Please examine the following record next.
Exam item: Confirm if pIC50 reported for the compound COc1ccc(OCC(=O)N2CCN(c3ncnc4sc(-c5ccc(F)cc5)nc34)CC2)cc1 [Example 300] is 6 or above.
Marked response: class 0

====

# Test system: Human peripheral blood mononuclear cells (PBMCs) as Responder cells, RPMI 1788 Stimulator cells
# test protocol: Mixed Lymphocyte Reaction (MLR) test
# Format: cell-based
# test conditions: Homo sapiens, RPMI-1788, lowest concentration giving 50% inhibition of the MLR; 6 days coculture, 3H-thymidine incorporation
reported property: log10 IC50 (log10 of the value in µM)
In plain terms, each number is the log10 of measured IC50 in µM.

Cc1nc(N2CCN(C(=O)COc3ccc(Cl)cc3)CC2)c2cc(-c3ccc(F)cc3)sc2n1 = 0.53
CCCc1nc2c(N3CCN(C(=O)COc4ccc(Cl)cc4)CC3)nc(N)nc2[nH]1 = -0.03
Cc1cc(Cl)ccc1OCC(=O)N1CCN(c2nc(N)nc3sc(-c4ccc(F)cc4)nc23)CC1 = -0.66
Nc1nc(N2CCN(C(=O)COc3ccc(Cl)cc3)CC2)c2nc(CCc3ccccc3)oc2n1 = 0.74

Alright, here's another molecule for you.
Exam item: Reported log10 IC50, molecule CCCCCc1nc2c(N3CCN(C(=O)COc4ccc(Cl)cc4)CC3)nc(N)nc2o1 : ____
Marked response: 0.65

====

# Test system: Human peripheral blood mononuclear cells (PBMCs) as Responder cells, RPMI 1788 Stimulator cells
# test protocol: Mixed Lymphocyte Reaction (MLR) test
# Type: cell-based
# test conditions: Homo sapiens, RPMI-1788, lowest concentration giving 50% inhibition of the MLR; 6 days coculture, 3H-thymidine incorporation
reported property: pIC50
One number for each entry, as −log10 of the molar value.

Examples from the recorded data:
Cc1ccc(CCc2nc3c(N4CCN(C(=O)COc5ccc(Cl)cc5)CC4)nc(N)nc3s2)cc1 = 6.09
Cc1cccc(NC(=O)N2CCN(c3nc(N)nc4sc(-c5ccc(F)cc5)cc34)CC2)c1 = 5.55
Nc1nc(N2CCCN(C(=O)COc3ccc(Cl)cc3)CC2)c2nc(-c3ccc(F)cc3)[nH]c2n1 = 5.43

# ---- query molecule ----
Exam item: What does the record list as pIC50 for Nc1nc(N2CCN(C(=O)CCc3ccc(F)cc3)CC2)c2nc(-c3ccc(F)cc3)sc2n1 ?
Marked response: 6.05

====

# System: Human peripheral blood mononuclear cells (PBMCs) as Responder cells, RPMI 1788 Stimulator cells
# test protocol: Mixed Lymphocyte Reaction (MLR) test
# Type: cell-based
# test conditions: Homo sapiens, RPMI-1788, lowest concentration giving 50% inhibition of the MLR; 6 days coculture, 3H-thymidine incorporation
reported property: IC50 (nM)
Give bare numbers, in nM.

Parameter requested: IC50. Apply to each item below.
1. C[S+]([O-])c1nc2c(N3CCN(C(=O)COc4ccc(Cl)cc4)CC3)nc(N)nc2s1 (stereo not shown)
2. Nc1nc(N2CCN(c3nccs3)CC2)c2nc(CCc3ccc(F)cc3)sc2n1
3. Nc1nc(N2CCN(C(=O)COc3ccc(Cl)cc3)CC2)c2nc(-c3ccc(Br)cc3)[nH]c2n1

Marked response:
[2650, 8820, 260]

====

# System: Human peripheral blood mononuclear cells (PBMCs) as Responder cells, RPMI 1788 Stimulator cells
# test protocol: Mixed Lymphocyte Reaction (MLR) test
# Type: cell-based
# test conditions: Homo sapiens, RPMI-1788, lowest concentration giving 50% inhibition of the MLR; 6 days coculture, 3H-thymidine incorporation
I'd appreciate it if you could supply IC50 values for the items below.
Give bare numbers, in nM.

For orientation, consider the following solved cases.
Cc1cccc(OCC(=O)N2CCN(c3nc(N)nc4sc(-c5ccc(F)cc5)nc34)CC2)c1 = 52
Nc1nc(N2CCN(C(=O)COc3ccc(Cl)cc3)CC2)c2cc(-c3ccccc3)sc2n1 = 330
Nc1nc(N2CCN(C(=O)COc3ccc(Cl)cc3)CC2)c2nc(-c3ccccn3)sc2n1 = 229
Nc1nc(N2CCN(C(=O)Nc3ccc(Cl)cc3)CC2)c2cc(-c3ccccc3)sc2n1 = 6700
N#Cc1ccc(NC(=O)N2CCN(c3nc(N)nc4sc(CCc5ccc(F)cc5)nc34)CC2)cc1 = 2660

Exam item: Which value of IC50 has been reported for CC(C)(Oc1ccc(Cl)cc1)C(=O)N1CCN(c2nc(N)nc3sc(-c4ccccc4)cc23)CC1 in the records?
Marked response: 6920

====

Give pIC50 for every item shown.
# System: Human peripheral blood mononuclear cells (PBMCs) as Responder cells, RPMI 1788 Stimulator cells
# test protocol: Mixed Lymphocyte Reaction (MLR) test
# Format: cell-based
# test conditions: Homo sapiens, RPMI-1788, lowest concentration giving 50% inhibition of the MLR; 6 days coculture, 3H-thymidine incorporation
One number for each entry, as −log10 of the molar value.

// known answers, use as guide
Nc1nc(N2CCN(C(=O)COc3ccc(Cl)cc3)CC2)c2nc(C3CC3)oc2n1 [Example 185] = 5.75
COc1ccc(OCC(=O)N2CCN(c3nc(N)nc4sc(CCc5ccc(C)cc5)nc34)CC2)cc1 [Example 259] = 6.02
Nc1nc(N2CCN(C(=O)COc3cccc(Cl)c3)CC2)c2nc(CCc3ccc(F)cc3)sc2n1 [Example 228] = 5.76
COc1ccc(CNC(=O)N2CCN(c3nc(N)nc4sc(-c5cccnc5)nc34)CC2)cc1 [Example 278] = 7.10

Parameters: items (list). Returns: pIC50 for each item.
1. Nc1nc(N2CCN(C(=O)COc3ccc(Cl)cc3)CC2)c2nc(CCc3cccs3)sc2n1 [Example 154]
2. COc1ccc(-c2nc3c(N4CCN(C(=O)COc5ccc(Cl)cc5)CC4)nc(N)nc3[nH]2)cc1OC [Example 390]
3. N#Cc1ccc(NC(=O)N2CCN(c3nc(N)nc4sc(Cc5ccc(F)cc5)nc34)CC2)cc1 [Example 232]
4. Nc1nc(N2CCN(C(=O)COc3ccc(Cl)cc3)CC2)c2nc(CCc3ccc(F)cc3)sc2n1 [Example 49]
5. Nc1nc(N2CCN(C(=O)COc3ccc(Cl)cc3)CC2)c2nc(CCc3ccc(F)cc3)oc2n1 [Example 172]

Marked response:
[6.10, 6.28, 6.07, 5.36, 6.10]
